Parameter: GI50. Scope: all listed entries.
System: HS 578T breast
Test: NCI tumour cell line growth inhibition, 48 h

- compound: "O=C1/C(=C/c2ccc([N+](=O)[O-])o2)Oc2ccc(Br)cc21"
  GI50: "3.91 µM"
- compound: "CC(C)(O)C1CCC(Nc2ccc3ncc(-c4cccc(C(F)(F)F)c4)n3n2)CC1 (stereo not given)"
  GI50: "1.59 µM"
- compound: "O=C(/C=C/c1cccs1)c1ccc(Nc2nc(Nc3ccc(F)cc3)nc(Nc3ccc(F)cc3)n2)cc1"
  GI50: "23.8 µM"
- compound: "CC(C)C[C@H](NC(=O)[C@H]1O[C@@H]1C(=O)O)C(=O)NCCc1ccc(O)cc1"
  GI50: "> 100 µM"
- compound: "C=CCNCCCN1C(=O)c2ccc3c4c(ccc(c24)C1=O)C(=O)N(CCCNCC=C)C3=O"
  GI50: "1.3 µM"
- compound: "CCN(CCNc1ccc(C)c2sc3cc(Cl)ccc3c(=O)c12)CC(C)O (stereo not given)"
  GI50: "2.23 µM"
- compound: "O=C1CC(c2ccc3c(c2)OCO3)Nc2cc3c(cc21)OCO3 (stereo not given)"
  GI50: "0.512 µM"
- compound: "Cn1c(=O)c(Oc2ccc(F)cc2F)cc2cnc(NC(CO)CO)nc21"
  GI50: "> 25 µM"
- compound: "CS(=O)(=O)c1ccc(-c2cnc(N)c(C(=O)Nc3ccccc3)n2)cc1"
  GI50: "> 100 µM"
- compound: "N=c1c2c(-c3ccccc3)c(-c3ccccc3)n(Cc3ccccc3)c2ncn1CCCO"
  GI50: "8.36 µM"

* * *

Tested on: TK-10 renal
Test: NCI tumour cell line growth inhibition, 48 h
result.type: TGI

- compound: "CCN(CC)CCC1CCCCN1CC(=O)N1c2ccccc2NC(=O)c2ccccc21 (stereo not drawn)"
  result.type: "TGI"
  assay.result: "> 100 µM"
- compound: "CC(CN1CCN(C)CC1)CN1c2ccccc2Sc2ccc(C(F)(F)F)cc21 (stereo not drawn)"
  result.type: "TGI"
  assay.result: "3.3 µM"
- compound: "N=c1c2c(-c3ccccc3)c(-c3ccccc3)n(Cc3ccccc3)c2ncn1CCCO"
  result.type: "TGI"
  assay.result: "19.3 µM"
- compound: "CC(C)C[C@H](NC(=O)[C@H]1O[C@@H]1C(=O)O)C(=O)NCCc1ccc(O)cc1"
  result.type: "TGI"
  assay.result: "> 100 µM"
- compound: "COc1ccc(Cc2c(N)[nH]c(=O)n(C)c2=O)cc1"
  result.type: "TGI"
  assay.result: "> 100 µM"
- compound: "Cn1c(=O)c(Oc2ccc(F)cc2F)cc2cnc(NC(CO)CO)nc21"
  result.type: "TGI"
  assay.result: "> 25 µM"
- compound: "Cc1cc(NC(=O)NC(=O)c2ccccc2N)ccc1Oc1ncc(Br)cn1"
  result.type: "TGI"
  assay.result: "35.1 µM"
- compound: "O=C(O)CSCC(=O)O"
  result.type: "TGI"
  assay.result: "> 100 µM"
- compound: "C(=Nc1ccc(-c2cc(-c3ccccc3)nc3ccc4ccccc4c23)cc1)c1ccccc1"
  result.type: "TGI"
  assay.result: "74.6 µM"
- compound: "Cc1nc(-n2[nH]c(C)c(CCO)c2=O)[nH]c(=O)c1CCO"
  result.type: "TGI"
  assay.result: "> 100 µM"
- compound: "c1ccc(-c2ccc(-c3cc4ccccc4[nH]3)cc2)cc1"
  result.type: "TGI"
  assay.result: "> 100 µM"
- compound: "CN1CCN(c2nc(NCCCCNc3ccnc4cc(Cl)ccc34)c3ccccc3n2)CC1"
  result.type: "TGI"
  assay.result: "4.69 µM"
- compound: "OCC1OC(Oc2cc(O)cc(/C=C/c3ccc(O)cc3)c2)C(O)C(O)C1O (stereo not drawn)"
  result.type: "TGI"
  assay.result: "> 100 µM"
- compound: "C=CCN(N=O)C(=O)N(CCCC(NC(C)=O)C(=O)NCc1ccccc1)Cc1ccccc1 (stereo not drawn)"
  result.type: "TGI"
  assay.result: "> 100 µM"
- compound: "CN=CN(C)c1c2ccccc2nc2ccccc12"
  result.type: "TGI"
  assay.result: "> 100 µM"
- compound: "O=c1[nH]nc2ccccc2c1Cl"
  result.type: "TGI"
  assay.result: "33 µM"
- compound: "Nc1c(Br)c(=O)[nH]c(=O)n1COCCO"
  result.type: "TGI"
  assay.result: "> 100 µM"
- compound: "COc1cc(Cn2c(=S)ss/c2=N\\C(=S)N(C)C)cc(OC)c1OC"
  result.type: "TGI"
  assay.result: "> 100 µM"
- compound: "O=C(N/N=C/c1ccc([N+](=O)[O-])cc1)c1cccc2nc3ccccc3nc12"
  result.type: "TGI"
  assay.result: "> 69.2 µM"
- compound: "Cc1ccc(/C=C2/SC(Nc3nc(-c4nc(NC5=NC(=O)/C(=C\\c6ccc(C)cc6)S5)sc4C)c(C)s3)=NC2=O)cc1"
  result.type: "TGI"
  assay.result: "1.21 µM"
- compound: "Nc1ccc(C(=O)NN2C(=O)C(Cl)C2c2cc(Br)ccc2O)cc1 (stereo not drawn)"
  result.type: "TGI"
  assay.result: "> 100 µM"
- compound: "COC(=O)C1CC=C(SC(=O)c2ccccc2)N1C(=O)c1ccccc1 (stereo not drawn)"
  result.type: "TGI"
  assay.result: "> 100 µM"
- compound: "FC(F)(F)C(C1=NC(C(F)(F)F)(C(F)(F)F)N=C(N2CCOCC2)O1)C(F)(F)F"
  result.type: "TGI"
  assay.result: "83.6 µM"
- compound: "COCC1N=C(c2cc(OC)c(OC)c(OC)c2-c2cc3c(cc2C2OCCCO2)OCO3)O[C@H]1c1ccccc1 (stereo partly drawn)"
  result.type: "TGI"
  assay.result: "> 100 µM"
- compound: "CCOC(=O)C1=C(NNC(=O)Cc2ccccc2)CSC1=Nc1ccccc1"
  result.type: "TGI"
  assay.result: "> 100 µM"
- compound: "NC1=NNC2(C(=O)N1)c1ccccc1-c1ccccc12"
  result.type: "TGI"
  assay.result: "> 10 µM"
- compound: "CC1=CCC(OC(=O)C(C)(C)CCC(O)(C(=O)OC2(C(C)C)CCC3(C)OC3C2)C(C)C)(C(C)C)CC1 (stereo not drawn)"
  result.type: "TGI"
  assay.result: "1.43 µM"
- compound: "COc1cccc(Nc2nc(-c3cccs3)nc3ccc(Br)cc23)c1"
  result.type: "TGI"
  assay.result: "> 100 µM"
- compound: "CCN(CCNc1ccc(C)c2sc3cc(Cl)ccc3c(=O)c12)CC(C)O (stereo not drawn)"
  result.type: "TGI"
  assay.result: "2.91 µM"
- compound: "COc1ccn2c(C(C)=O)cc(C(=O)c3ccc4c(c3)Sc3ccccc3N4)c2c1"
  result.type: "TGI"
  assay.result: "> 100 µM"
- compound: "O=c1c2cccc3cccc(c4oc5c6cccc7cccc(c(=O)c5c14)c76)c32"
  result.type: "TGI"
  assay.result: "17.5 µM"
- compound: "Cc1nc2sc(C(=O)Nc3cccc4ccccc34)c(N)c2cc1C(=O)/C=C/c1ccccc1"
  result.type: "TGI"
  assay.result: "8.88 µM"
- compound: "CN(C(=O)c1ccc(Cl)cc1)C(=S)N1CCN(c2ccccn2)CC1"
  result.type: "TGI"
  assay.result: "> 100 µM"
- compound: "NC(=O)NO"
  result.type: "TGI"
  assay.result: "> 2500 µM"
- compound: "CC(/C(=N/NC(=O)C(N)=O)c1c(Cl)ccc(Cl)c1O)C1(O)C(=O)Nc2ccccc21 (stereo not drawn)"
  result.type: "TGI"
  assay.result: "> 100 µM"
- compound: "O=c1c(Sc2c(O)c3ccccc3c3ccccc3c2=O)c(O)c2ccccc2c2ccccc12"
  result.type: "TGI"
  assay.result: "> 100 µM"
- compound: "CC1CC(c2cccc3c2OCO3)=Nc2ccccc2S1 (stereo not drawn)"
  result.type: "TGI"
  assay.result: "> 100 µM"
- compound: "CC(=O)CCC(=O)C(=[N+]=[N-])S(=O)(=O)c1ccccc1"
  result.type: "TGI"
  assay.result: "> 100 µM"
- compound: "COc1ccc(C2C3CCc4ccccc4C3=NN2S(=O)(=O)c2ccc(Cl)cc2)cc1 (stereo not drawn)"
  result.type: "TGI"
  assay.result: "> 100 µM"
- compound: "CS(=O)(=O)OCCn1cnc2nc(NC(=O)c3ccccc3)[nH]c(=O)c21"
  result.type: "TGI"
  assay.result: "> 100 µM"
- compound: "C=CCOc1ccc(/C(N=Nc2ccccc2)=N/NC(=O)c2ccccc2)cc1OC"
  result.type: "TGI"
  assay.result: "> 100 µM"
- compound: "CS(=O)(=O)c1ccc(-c2cnc(N)c(C(=O)Nc3ccccc3)n2)cc1"
  result.type: "TGI"
  assay.result: "> 100 µM"
- compound: "Nc1ccc2nc3ccc(N)cc3[n+](-c3ccccc3)c2c1"
  result.type: "TGI"
  assay.result: "> 100 µM"
